Hello, the source for this data is patent US20200347144A1, in case you need it.

# key: entry, value: average fluorescence intensity
Target: T1, human 4-1BB, full length, on transfected cells (human, UniProt Q07011 24-255)
T1 construct: whole, on cells; also called CHOK1-h4-1BB
T1 sequence (Q07011 24-255): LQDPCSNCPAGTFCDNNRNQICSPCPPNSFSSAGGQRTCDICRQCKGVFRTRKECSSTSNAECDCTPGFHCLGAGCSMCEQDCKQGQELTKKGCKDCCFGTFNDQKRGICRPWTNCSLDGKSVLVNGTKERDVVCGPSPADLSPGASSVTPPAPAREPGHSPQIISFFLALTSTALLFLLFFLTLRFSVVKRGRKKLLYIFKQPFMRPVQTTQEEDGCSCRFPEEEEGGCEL
Assay: FACS, CHOK1-h4-1BB cells; Ab 10 ug/ml
Expressed in MFI, but write only the number.

Fill in: average fluorescence intensity of 15G10D4 (antibody, V domains shown) VH: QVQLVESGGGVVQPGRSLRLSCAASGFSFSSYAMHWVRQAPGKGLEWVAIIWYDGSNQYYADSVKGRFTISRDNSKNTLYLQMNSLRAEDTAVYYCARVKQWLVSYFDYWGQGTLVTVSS VL: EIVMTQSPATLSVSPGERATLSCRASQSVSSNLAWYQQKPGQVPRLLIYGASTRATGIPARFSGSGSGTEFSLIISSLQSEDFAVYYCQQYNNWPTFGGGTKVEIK is ___
532

Fill in: average fluorescence intensity of 113F6C6 (antibody, V domains shown, also called 4-1BB fully human antibody 113F6C6; 113F6F6) VH: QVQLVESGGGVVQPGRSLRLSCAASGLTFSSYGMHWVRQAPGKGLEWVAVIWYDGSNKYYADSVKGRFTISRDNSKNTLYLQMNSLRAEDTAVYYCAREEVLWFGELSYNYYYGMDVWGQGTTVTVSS VL: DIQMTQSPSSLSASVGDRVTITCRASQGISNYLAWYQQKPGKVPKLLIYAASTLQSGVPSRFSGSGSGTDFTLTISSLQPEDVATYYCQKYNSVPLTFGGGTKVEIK is ___
405

Fill in: average fluorescence intensity of 57B3D10 (antibody, V domains shown, also called 4-1BB fully human antibody 57B3D10) VH: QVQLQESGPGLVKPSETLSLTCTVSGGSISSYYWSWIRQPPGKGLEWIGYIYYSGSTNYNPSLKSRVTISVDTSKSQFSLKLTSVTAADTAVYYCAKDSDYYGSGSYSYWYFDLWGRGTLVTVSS VL: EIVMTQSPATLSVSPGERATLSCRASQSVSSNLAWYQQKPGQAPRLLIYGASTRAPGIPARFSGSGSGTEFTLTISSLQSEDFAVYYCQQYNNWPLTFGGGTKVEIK is ___
538

Fill in: average fluorescence intensity of 119B6G5 (antibody, V domains shown) VH: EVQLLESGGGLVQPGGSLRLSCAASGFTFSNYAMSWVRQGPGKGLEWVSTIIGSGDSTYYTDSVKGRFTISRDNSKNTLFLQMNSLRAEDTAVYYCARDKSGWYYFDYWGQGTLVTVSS VL: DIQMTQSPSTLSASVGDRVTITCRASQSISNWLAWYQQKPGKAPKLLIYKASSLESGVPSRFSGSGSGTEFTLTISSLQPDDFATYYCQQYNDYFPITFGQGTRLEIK is ___
1080

Fill in: average fluorescence intensity of 100F3C4 (antibody, V domains shown) VH: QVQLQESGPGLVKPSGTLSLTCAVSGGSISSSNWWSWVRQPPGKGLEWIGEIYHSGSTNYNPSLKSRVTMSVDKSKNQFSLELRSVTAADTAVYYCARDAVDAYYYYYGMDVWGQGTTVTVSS VL: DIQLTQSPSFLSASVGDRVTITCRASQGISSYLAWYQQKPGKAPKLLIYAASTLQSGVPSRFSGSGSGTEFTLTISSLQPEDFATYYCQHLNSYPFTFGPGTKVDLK is ___
458

Fill in: average fluorescence intensity of 52F4G2 (antibody, V domains shown) VH: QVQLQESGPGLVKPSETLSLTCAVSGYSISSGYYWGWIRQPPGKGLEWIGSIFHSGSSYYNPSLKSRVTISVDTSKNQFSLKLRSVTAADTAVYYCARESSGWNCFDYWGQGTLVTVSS VL: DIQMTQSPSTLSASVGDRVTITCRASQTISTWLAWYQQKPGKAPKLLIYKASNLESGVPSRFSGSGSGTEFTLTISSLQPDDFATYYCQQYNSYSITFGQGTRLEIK is ___
615

Fill in: average fluorescence intensity of 170D7F2 (antibody, V domains shown) VH: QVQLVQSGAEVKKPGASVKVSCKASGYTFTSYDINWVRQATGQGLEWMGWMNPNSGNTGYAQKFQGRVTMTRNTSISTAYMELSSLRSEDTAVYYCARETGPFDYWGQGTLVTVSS VL: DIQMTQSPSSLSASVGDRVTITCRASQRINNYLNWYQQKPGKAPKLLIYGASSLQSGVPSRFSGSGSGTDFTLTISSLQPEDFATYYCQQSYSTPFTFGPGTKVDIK is ___
735
